Assay: Metabolic stability in liver microsomes
Type: in vitro ADME
Details: rat liver microsomes, both sexes; read-out: Half-Life Both sexes
assay.metric: half-life at 1 μM (h)
API: value field is a number in h; no unit string.

So what's the measured half-life at 1 μM for this one? C[C@@H](C(=O)Nc1ccnc(-c2cnc(N3CCC[C@H]3C(F)(F)F)nc2)n1)n1cnc2[nH]c(=O)n(C)c(=O)c21
1.88

So what's the measured half-life at 1 μM for this one? Cn1c(=O)c2c(ncn2CC(=O)Nc2ccnc(-c3cnc(N4CCCC4(C)C)nc3)n2)n(C)c1=O
0.363

So what's the measured half-life at 1 μM for this one? C[C@@H](C(=O)Nc1ccnc(-c2cnc(N3CCC[C@@H]3C(F)(F)F)nc2)n1)n1cnc2c1c(=O)n(C)c(=O)n2C
1.21

So what's the measured half-life at 1 μM for this one? C[C@@H](C(=O)Nc1ccnc(-c2cnc(N3CCCC3(C)C)nc2)n1)n1cnc2c1c(=O)n(C)c(=O)n2C
0.653

So what's the measured half-life at 1 μM for this one? C[C@@H](C(=O)Nc1ccnc(-c2cnc(N3CC4CC4C3)nc2)n1)n1cnc2c1c(=O)n(C)c(=O)n2C (stereo partly shown)
1.21

So what's the measured half-life at 1 μM for this one? C[C@H]1CCCN1c1ncc(-c2nccc(NC(=O)Cn3cnc4c3c(=O)n(C)c(=O)n4C)n2)cn1
1.06

So what's the measured half-life at 1 μM for this one? C[C@@H](C(=O)Nc1ccnc(-c2cnc(N3CC(C(F)(F)F)C3)nc2)n1)n1cnc2c1c(=O)n(C)c(=O)n2C
1

So what's the measured half-life at 1 μM for this one? C[C@@H](C(=O)Nc1ccnc(-c2cnc(N3CCC[C@H]3C(F)(F)F)nc2)n1)n1cnc2c1c(=O)n(C)c(=O)n2C(F)F
1.97

So what's the measured half-life at 1 μM for this one? Cn1c(=O)c2c(ncn2CC(=O)Nc2ccnc(-c3cnc(N4CCC(F)(F)CC4)nc3)n2)n(C)c1=O
1.92
